Origin of measurements: patent US7276337B2

assayed-system: Ribonuclease A (Bos taurus, UniProt P61823)
Sequence (P61823 27-150): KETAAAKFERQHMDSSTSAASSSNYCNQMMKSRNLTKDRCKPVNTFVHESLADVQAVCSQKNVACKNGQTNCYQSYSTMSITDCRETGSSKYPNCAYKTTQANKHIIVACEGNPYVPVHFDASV
test: Visual detection ribonuclease assay, cleavage of Substrate ODN by RNase A
Type: biochemical, mammalian
Set-up: key: +++ = maximum intensity; ++ = moderate intensity; + = faint but above background; − = negative (identical to background)
protocol-conditions: RNase A 10 pg/ml; visual inspection, UV excitation; Substrate 500 nM; 37° C. 60 minutes
endpoint: Sensitivity of Substrate ODN to Ribonuclease A, relative signal intensity

Solved entries (count: 5):
- substance: "5′ Fluorescein-AAcAA-Dabcyl 3′ (NAACAAN; 5' fluorescein and 3' Dabcyl labels, nucleotide chemistry not given here) [SEQ ID NO:5]"
  assayed-system: "Ribonuclease A (Bos taurus, UniProt P61823)"
  value: "−"
- substance: "5′ Fluorescein-AAgAA-Dabcyl 3′ (NAAGAAN; 5' fluorescein and 3' Dabcyl labels, nucleotide chemistry not given here) [SEQ ID NO:4]"
  assayed-system: "Ribonuclease A (Bos taurus, UniProt P61823)"
  value: "−"
- substance: "5′ Fluorescein-AacAA-Dabcyl 3′ (NAACAAN; 5' fluorescein and 3' Dabcyl labels, nucleotide chemistry not given here) [SEQ ID NO:8]"
  assayed-system: "Ribonuclease A (Bos taurus, UniProt P61823)"
  value: "+"
- substance: "5′ Fluorescein-AagucA-Dabcyl 3′ (NAAGUCAN; 5' fluorescein and 3' Dabcyl labels, nucleotide chemistry not given here) [SEQ ID NO:24]"
  assayed-system: "Ribonuclease A (Bos taurus, UniProt P61823)"
  value: "−"
- substance: "5′ Fluorescein-AAaAA-Dabcyl 3′ (NAAAAAN; 5' fluorescein and 3' Dabcyl labels, nucleotide chemistry not given here) [SEQ ID NO:6]"
  assayed-system: "Ribonuclease A (Bos taurus, UniProt P61823)"
  value: "−"

Hello, I would appreciate it if you could give Sensitivity of Substrate ODN to Ribonuclease A, relative signal intensity for each entry below.
1. 5′ Fluorescein-AauggcA-QSY-7 3′ (NAAUGGCAN; 5' fluorescein and 3' QSY-7 labels, nucleotide chemistry not given here) [SEQ ID NO:30]
2. 5′ Fluorescein-AguAA-Dabcyl 3′ (NAGUAAN; 5' fluorescein and 3' Dabcyl labels, nucleotide chemistry not given here) [SEQ ID NO:7]
3. 5′ Fluorescein-AAuAA-Dabcyl 3′ (NAAUAAN; 5' fluorescein and 3' Dabcyl labels, nucleotide chemistry not given here) [SEQ ID NO:3]
4. 5′ Fluorescein-AcgaA-Dabcyl 3′ (NACGAAN; 5' fluorescein and 3' Dabcyl labels, nucleotide chemistry not given here) [SEQ ID NO:12]

++
−
−
−

Look up Sensitivity of Substrate ODN to Ribonuclease A, relative signal intensity: 5′ Fluorescein-AuagA-Dabcyl 3′ (NAUAGAN; 5' fluorescein and 3' Dabcyl labels, nucleotide chemistry not given here) [SEQ ID NO:16]
−

* * *

assayed-system: T1, Ribonuclease T1 (Aspergillus oryzae, UniProt P00651)
T1 sequence (P00651 27-130): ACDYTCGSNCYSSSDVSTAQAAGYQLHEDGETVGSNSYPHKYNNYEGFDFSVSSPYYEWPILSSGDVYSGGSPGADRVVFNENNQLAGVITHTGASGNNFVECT
test: Visual detection ribonuclease assay, cleavage of Substrate ODN by RNase T1
Type: biochemical
Parameters: key: +++ = maximum intensity; ++ = moderate intensity; + = faint but above background; − = negative (identical to background)
protocol-conditions: RNase T1 10^−3 units/ml; visual inspection, UV excitation; Substrate 500 nM; 37° C. 60 minutes
endpoint: Sensitivity of Substrate ODN to Ribonuclease T1, relative signal intensity

Solved entries (count: 10):
- substance: "5′ Fluorescein-AcggA-Dabcyl 3′ (NACGGAN; 5' fluorescein and 3' Dabcyl labels, nucleotide chemistry not given here) [SEQ ID NO:14]"
  assayed-system: "T1, Ribonuclease T1 (Aspergillus oryzae, UniProt P00651)"
  value: "+++"
- substance: "5′ Fluorescein-AagucA-Dabcyl 3′ (NAAGUCAN; 5' fluorescein and 3' Dabcyl labels, nucleotide chemistry not given here) [SEQ ID NO:24]"
  assayed-system: "T1, Ribonuclease T1 (Aspergillus oryzae, UniProt P00651)"
  value: "++"
- substance: "5′ Fluorescein-AagucA-QSY-7 3′ (NAAGUCAN; 5' fluorescein and 3' QSY-7 labels, nucleotide chemistry not given here) [SEQ ID NO:27]"
  assayed-system: "T1, Ribonuclease T1 (Aspergillus oryzae, UniProt P00651)"
  value: "+++"
- substance: "5′ Fluorescein-AgcuaA-Dabcyl 3′ (NAGCUAAN; 5' fluorescein and 3' Dabcyl labels, nucleotide chemistry not given here) [SEQ ID NO:22]"
  assayed-system: "T1, Ribonuclease T1 (Aspergillus oryzae, UniProt P00651)"
  value: "+++"
- substance: "5′ Fluorescein-AuagA-Dabcyl 3′ (NAUAGAN; 5' fluorescein and 3' Dabcyl labels, nucleotide chemistry not given here) [SEQ ID NO:16]"
  assayed-system: "T1, Ribonuclease T1 (Aspergillus oryzae, UniProt P00651)"
  value: "+++"
- substance: "5′ Fluorescein-AguAA-Dabcyl 3′ (NAGUAAN; 5' fluorescein and 3' Dabcyl labels, nucleotide chemistry not given here) [SEQ ID NO:7]"
  assayed-system: "T1, Ribonuclease T1 (Aspergillus oryzae, UniProt P00651)"
  value: "+"
- substance: "5′ Fluorescein-AcgcA-Dabcyl 3′ (NACGCAN; 5' fluorescein and 3' Dabcyl labels, nucleotide chemistry not given here) [SEQ ID NO:13]"
  assayed-system: "T1, Ribonuclease T1 (Aspergillus oryzae, UniProt P00651)"
  value: "+++"
- substance: "5′ Fluorescein-AgucAA-Dabcyl 3′ (NAGUCAAN; 5' fluorescein and 3' Dabcyl labels, nucleotide chemistry not given here) [SEQ ID NO:10]"
  assayed-system: "T1, Ribonuclease T1 (Aspergillus oryzae, UniProt P00651)"
  value: "+"
- substance: "5′ Fluorescein-AcguA-Dabcyl 3′ (NACGUAN; 5' fluorescein and 3' Dabcyl labels, nucleotide chemistry not given here) [SEQ ID NO:15]"
  assayed-system: "T1, Ribonuclease T1 (Aspergillus oryzae, UniProt P00651)"
  value: "+++"
- substance: "5′ Fluorescein-AaggucA-QSY-7 3′ (NAAGGUCAN; 5' fluorescein and 3' QSY-7 labels, nucleotide chemistry not given here) [SEQ ID NO:28]"
  assayed-system: "T1, Ribonuclease T1 (Aspergillus oryzae, UniProt P00651)"
  value: "+++"

Hello, I would appreciate it if you could give Sensitivity of Substrate ODN to Ribonuclease T1, relative signal intensity for each entry below.
1. 5′ Fluorescein-AacAA-Dabcyl 3′ (NAACAAN; 5' fluorescein and 3' Dabcyl labels, nucleotide chemistry not given here) [SEQ ID NO:8]
2. 5′ Fluorescein-AaugcA-QSY-7 3′ (NAAUGCAN; 5' fluorescein and 3' QSY-7 labels, nucleotide chemistry not given here) [SEQ ID NO:29]
3. 5′ Fluorescein-AAgAA-Dabcyl 3′ (NAAGAAN; 5' fluorescein and 3' Dabcyl labels, nucleotide chemistry not given here) [SEQ ID NO:4]
4. 5′ Fluorescein-AauggcA-QSY-7 3′ (NAAUGGCAN; 5' fluorescein and 3' QSY-7 labels, nucleotide chemistry not given here) [SEQ ID NO:30]
5. 5′ Fluorescein-AAcAA-Dabcyl 3′ (NAACAAN; 5' fluorescein and 3' Dabcyl labels, nucleotide chemistry not given here) [SEQ ID NO:5]

1. −
2. +++
3. +
4. +++
5. −
